For each of the compounds below, state its Biodistribution, Mean, thyroid.
system: grafted B16 F0 murine melanoma tumour; assay: Biodistribution of the ^125I-labelled molecules in the melanoma-bearing mouse (autoradiography of whole-body sections); conditions: thyroid; 6 H
Counter-ions that a name gives are not always drawn.
One number for each entry.

Incoming: I have this compound here, `CCN(CC)CCNC(=O)c1cnc2cc(I)ccc2n1.Cl.Cl` , and I need its recorded Biodistribution, Mean, thyroid.
Outgoing: 83.77

Incoming: Please give the measured Biodistribution, Mean, thyroid for this compound: `CCN(CC)CCNC(=O)c1ccc2cncc(I)c2n1.Cl.Cl`
Outgoing: 56.95

Okay, now this compound:
Incoming: Entry under review: CCCN(CCC)CCCCNC(=O)c1ccc2cc(I)ccc2n1 [compound 49, dihydrochloride] . Reported Biodistribution, Mean, thyroid?
Outgoing: 16.38
